pIC50 values, listed per item
- assay.target: wt human TYK2, catalytic site (Homo sapiens)
- Construct: wt human TYK2, catalytic site
- Sequence (P29597 897-1176 limits assumed): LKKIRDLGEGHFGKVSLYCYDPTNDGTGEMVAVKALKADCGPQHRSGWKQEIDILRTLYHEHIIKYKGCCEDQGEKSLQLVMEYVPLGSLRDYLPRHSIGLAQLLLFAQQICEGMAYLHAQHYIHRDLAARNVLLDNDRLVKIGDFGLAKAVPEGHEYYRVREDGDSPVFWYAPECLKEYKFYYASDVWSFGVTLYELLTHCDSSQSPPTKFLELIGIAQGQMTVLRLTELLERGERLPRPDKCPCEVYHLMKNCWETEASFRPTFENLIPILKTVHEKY
- assay.summary: HTRF KinEASE assay, TYK2
- settings: 1 μM ATP; read-out: IC50, Activity Toward TYK2
pIC50: −log10 of the molar value.

INSERT INTO assay_data (compound, assay_result) VALUES
  ('N#Cc1cn(C2COC2)c(-c2ccc(Nc3cn(-c4c(Cl)cccc4Cl)nc3C(N)=O)cc2)n1', '> 8.00'),
  ('CC(C)(C)NC(=O)c1ccc(Nc2cn(-c3c(F)cccc3F)nc2C(N)=O)cn1', '6.00 to 7.00'),
  ('Cc1cncc2nnc(-c3ccc(Nc4cn(-c5c(Cl)cccc5Cl)nc4C(N)=O)cn3)n12', '7.00 to 8.00'),
  ('NC(=O)c1nn(-c2c(Cl)cccc2Cl)cc1Nc1ccc(C(=O)N2CC[C@@H](F)C2)cc1', '> 8.00'),
  ('CN1CCCN(C(=O)c2ccc(Nc3nn(-c4c(Cl)cccc4Cl)nc3C(N)=O)nc2)CC1', '7.00 to 8.00'),
  ('CCn1ncnc1-c1ccc(Nc2cn(-c3c(Cl)cccc3Cl)nc2C(N)=O)nc1', '6.00 to 7.00'),
  ('NC(=O)c1nn(-c2c(Cl)cccc2Cl)cc1Nc1ccc(C(=O)N2CCCCCC2)cc1', '> 8.00'),
  ('COc1ccc(Cn2cc(Nc3cn(-c4c(Cl)cccc4Cl)nc3C(N)=O)cn2)cc1', '6.00 to 7.00'),
  ('NC(=O)c1nn(-c2c(Cl)cccc2Cl)cc1Nc1ccc(-c2nnccc2Cl)cc1', '6.00 to 7.00'),
  ('CC(C)(C)OC(=O)NC1CCN(C(=O)c2ccc(Nc3cn(-c4c(Cl)cccc4Cl)nc3C(N)=O)cc2)C1 (stereo not drawn)', '7.00 to 8.00');

Per the record, CCn1nc(C(F)(F)F)nc1-c1ccc(Nc2cn(-c3c(Cl)cccc3Cl)nc2C(N)=O)cc1 has pIC50 of 6.00 to 7.00

Per the record, N=S1(=O)CCN(C(=O)c2ccc(Nc3nn(-c4c(Cl)cccc4Cl)nc3C(N)=O)cc2)CC1 has pIC50 of > 8.00

----------
- assay.target: wt human TYK2, catalytic site (Homo sapiens, UniProt P29597)
- Construct: wt human TYK2, catalytic site
- assay.summary: HTRF KinEASE assay, TYK2
- settings: 1 μM ATP; read-out: IC50, Activity Toward TYK2
pIC50: −log10 of the molar value.
pIC50 values, listed per item

INSERT INTO measurements (compound, assay_result) VALUES
  ('NC(=O)c1nn(-c2c(Cl)cccc2Cl)cc1Nc1ccc(CC(=O)N2CC(F)C2)nc1', '6.00 to 7.00'),
  ('CCn1cc(C(F)(F)F)nc1-c1ccc(Nc2cn(-c3c(Cl)cccc3Cl)nc2C(N)=O)cn1', '6.00 to 7.00'),
  ('NC(=O)c1nn(-c2c(Cl)cccc2Cl)cc1Nc1ccc(C(=O)N2CCC(N)C2)cc1 (stereo not drawn)', '7.00 to 8.00'),
  ('N#CC1CN(C(=O)c2ccc(Nc3nn(-c4c(Cl)cccc4Cl)nc3C(N)=O)nc2)C1', '7.00 to 8.00');

Let us move to another entry and its pIC50.
Per the record, Cn1c(-c2ccc(Nc3cn(-c4c(Cl)cccc4Cl)nc3C(N)=O)cc2)nnc1C(F)(F)F has pIC50 of 7.00 to 8.00

----------
- assay.target: wt human TYK2, catalytic site (Homo sapiens, UniProt P29597)
- Construct: wt human TYK2, catalytic site
- assay.summary: HTRF KinEASE assay, TYK2
- settings: 1 μM ATP; read-out: IC50, Activity Toward TYK2
quantity.measured: IC50

INSERT INTO measurements (record_smiles, assay_result) VALUES
  ('NC(=O)c1nn(-c2c(Cl)cccc2Cl)cc1Nc1ccc(-c2nncn2C2CC2)cc1', '10 to 100 nM'),
  ('CN(C)CCn1ccnc1-c1ccc(Nc2cn(-c3c(Cl)cccc3Cl)nc2C(N)=O)cc1', '10 to 100 nM'),
  ('Cc1cccc2nnc(-c3ccc(Nc4cn(-c5c(Cl)cc(F)cc5Cl)nc4C(N)=O)cn3)n12', '10 to 100 nM'),
  ('NC(=O)c1nn(-c2c(Cl)cccc2Cl)cc1Nc1ccc(-n2c(=O)sc3ccccc32)cc1', '100 to 1000 nM');

Let us move to another entry and its IC50.
Per the record, NC(=O)c1nn(-c2c(Cl)cccc2Cl)nc1Nc1ccc(C(=O)N2CCOCC2)cc1 has IC50 of < 10 nM

----------
- assay.target: wt human TYK2, catalytic site (Homo sapiens)
- Construct: wt human TYK2, catalytic site
- assay.summary: HTRF KinEASE assay, TYK2
- settings: 1 μM ATP; read-out: IC50, Activity Toward TYK2
pIC50: −log10 of the molar value.
quantity.measured: pIC50

// below: answered molecules
INSERT INTO measurements (record_smiles, quantity_measured, assay_result) VALUES
  ('NC(=O)c1nn(-c2c(Cl)cccc2Cl)cc1Nc1ccc(C(=O)N2CC[C@H](N)C2)cn1', 'pIC50', '6.00 to 7.00'),
  ('CCCn1cc(C(F)(F)F)nc1-c1ccc(Nc2cn(-c3c(Cl)cccc3Cl)nc2C(N)=O)cc1', 'pIC50', '6.00 to 7.00'),
  ('NC(=O)c1nn(-c2c(Cl)cccc2Cl)cc1Nc1ccc(N2CCCC2=O)nc1', 'pIC50', '6.00 to 7.00');

Per the record, Cc1cc(Nc2cn(-c3c(F)cccc3F)nc2C(N)=O)ncn1 has pIC50 of 6.00 to 7.00

Per the record, CN(C)C1CCN(C(=O)c2ccc(Nc3cn(-c4c(Cl)cccc4Cl)nc3C(N)=O)cc2)CC1 has pIC50 of 7.00 to 8.00

Per the record, Cn1nnnc1-c1ccc(Nc2nn(-c3c(Cl)cccc3Cl)nc2C(N)=O)cc1 has pIC50 of > 8.00

Per the record, NC(=O)c1nn(-c2c(Cl)cccc2Cl)cc1Nc1ccc(-n2nnc3c2CCCC3)cc1 has pIC50 of 7.00 to 8.00

Per the record, NC(=O)c1nn(-c2c(F)cccc2F)cc1Nc1ccc(C(=O)N2CCOCC2)nc1 has pIC50 of 7.00 to 8.00

Per the record, CN1CCCN(C(=O)c2ccc(Nc3cn(-c4c(Cl)cccc4Cl)nc3C(N)=O)cc2)CC1 has pIC50 of > 8.00

----------
IC50 values, listed per item
- assay.target: wt human TYK2, catalytic site (Homo sapiens)
- Construct: wt human TYK2, catalytic site
- assay.summary: HTRF KinEASE assay, TYK2
- settings: 1 μM ATP; read-out: IC50, Activity Toward TYK2

// below: answered molecules
INSERT INTO assay_data (molecule, quantity_measured, assay_result) VALUES
  ('CCc1nc(C(F)(F)F)nn1-c1ccc(Nc2cn(-c3c(F)cccc3F)nc2C(N)=O)cc1', 'IC50', '10 to 100 nM'),
  ('NC(=O)c1nn(-c2c(Cl)cccc2Cl)nc1Nc1ccc(-c2nncn2CC(F)F)cc1', 'IC50', '10 to 100 nM');

Per the record, Cn1nnnc1-c1ccc(Nc2cn(-c3c(Cl)cccc3Cl)nc2C(N)=O)nc1 has IC50 of 10 to 100 nM

Per the record, CCNC(=O)c1ccc(Nc2cn(-c3c(F)cccc3F)nc2C(N)=O)cc1 has IC50 of 10 to 100 nM

Per the record, CS(=O)(=O)Nc1ccc(Nc2cn(-c3c(Cl)cccc3Cl)nc2C(N)=O)cc1 has IC50 of 10 to 100 nM

Per the record, N#CC1CN(C(=O)c2ccc(Nc3nn(-c4c(Cl)cccc4Cl)nc3C(N)=O)cc2)C1 has IC50 of < 10 nM

Per the record, NC(=O)c1nn(-c2c(Cl)cccc2Cl)cc1Nc1ccc(-n2nc(C(F)(F)F)nc2CO)nc1 has IC50 of 10 to 100 nM

Per the record, CC(C)(C)OC(=O)N1CCCC(NC(=O)c2ccc(Nc3cn(-c4c(F)cccc4Cl)nc3C(N)=O)cc2)C1 (stereo not shown) has IC50 of 100 to 1000 nM

Per the record, COCCNC(=O)c1ccc(Nc2cn(-c3c(Cl)cccc3Cl)nc2C(N)=O)cc1 has IC50 of 10 to 100 nM
